Numbers sourced from paper PMC9598656.

- Test system: HEL 299 (non-cancerous human lung fibroblast cell line)
- protocol-notes: In vitro cytotoxicity, WST-1
- Type: cell-based
- condition-notes: HEL 299, 24 h, first of two independent experiments
assay-metric: IC50

So what does the record say about IC50 for `[H]/N=C(\N)NN=C(CCCCCC)c1ccc(Cl)cc1` ?
< 2 µg/mL

Try the compound `N=C(N/N=C/c1ccc(Cl)cc1)N/N=C/c1ccc(Cl)cc1`
8 µg/mL

Subsequent entry: CC1(C)S[C@@H]2[C@H](NC(=O)[C@H](N)c3ccccc3)C(=O)N2[C@H]1C(=O)O [Ampicillin, reference compound]
> 128 µg/mL

Now this one: `[H]/N=C(\N)NN=C(CC1CCCCC1)c1ccc(Cl)cc1`
< 2 µg/mL
